Ref: PubChem BioAssay (EPA / NIEHS)

Assay: ATG_M_06_CIS: Attagene CIS-FACTORIAL HepG2 Assay for M06 Transcription Factor (Internal Marker) (AID 2282950)
Conditions: HepG2 Attagene CIS-FACTORIAL M06 internal marker reporter; actives raise or lower the signal
Experimental: ATG_CIS is a cell-based, multiplexed-readout assay that uses HepG2, a human liver cell line, with measurements taken at 24 hours after chemical dosing in a 24-well plate.ATG_M_06_CIS is one of 52 assay component(s) measured or calculated from the ATG_CIS assay. […] This assay endpoint, ATG_M_06_CIS, was analyzed with bidirectional fitting relative to DMSO as the negative control and baseline of activity. […]
Active and inactive are the calls of the source. How the source made its calls: active means hit-call score of the fitted dose curve at least 0.9, where 1 is the maximum; inactive means score below 0.9.
readout: outcome

Consider the following illustrative entries.
CSC(=O)c1cccc2nnsc12    inactive
S=C([S-])NCCNC(=S)[S-].[Mn+2]    inactive
CCOC(=O)NCCOc1ccc(Oc2ccccc2)cc1    inactive
CCSC(=O)N(CC(C)C)CC(C)C    inactive
COC(=O)c1ccc(CNS(C)(=O)=O)cc1S(=O)(=O)NC(=O)Nc1nc(OC)cc(OC)n1    inactive
CCCCC(CC)COC(=O)c1ccccc1C(=O)O (stereo not drawn)    inactive
CCCCCCC(C)OC(=O)COc1nc(F)c(Cl)c(N)c1Cl (stereo not drawn)    inactive
CCCCCOC(=O)COc1cc(N2C(=O)C3=C(CCCC3)C2=O)c(F)cc1Cl    inactive
OB(O)O    inactive
CC(=O)S[C@@H]1CC2=CC(=O)CC[C@]2(C)[C@H]2CC[C@@]3(C)[C@@H](CC[C@@]34CCC(=O)O4)[C@H]12    inactive

Request: Find the measured outcome of CCOC(=O)C(C)Oc1ccc(Oc2nc3ccc(Cl)cc3o2)cc1 (stereo not drawn) and report it.
Result: inactive

Request: Find the measured outcome of CC(C)(C)[C@@H](O)[C@@H](Cc1ccc(Cl)cc1)n1cncn1 and report it.
Result: inactive

Request: Find the measured outcome of O=C(O)C1(C(=O)Nc2ccc(Cl)cc2Cl)CC1 and report it.
Result: inactive

Request: Find the measured outcome of CCOC(=O)C(C)Oc1ccc(Oc2cnc3cc(Cl)ccc3n2)cc1 (stereo not drawn) and report it.
Result: inactive

Request: Find the measured outcome of CCOC(=O)[C@H](C)Oc1ccc(Oc2nc3ccc(Cl)cc3o2)cc1 and report it.
Result: inactive

Request: Find the measured outcome of CC(=O)[C@H]1CC[C@H]2[C@@H]3CCC4=CC(=O)CC[C@]4(C)[C@H]3CC[C@]12C and report it.
Result: inactive

Request: Find the measured outcome of O=C(Nc1ccc([N+](=O)[O-])cc1Cl)c1cc(Cl)ccc1O and report it.
Result: inactive

Request: Find the measured outcome of COc1c(Cl)ccc(Cl)c1C(=O)O and report it.
Result: inactive

Request: Find the measured outcome of COCCO and report it.
Result: inactive

Request: Find the measured outcome of CCNc1nc(N)nc(Cl)n1 and report it.
Result: inactive

Request: Find the measured outcome of Oc1ccc(C(c2ccc(O)cc2)C(Cl)(Cl)Cl)cc1 and report it.
Result: inactive

Request: Find the measured outcome of COC(=O)CSc1cc(N=c2sc(=O)n3n2CCCC3)c(F)cc1Cl and report it.
Result: inactive

Request: Find the measured outcome of CCCOC(=O)c1ccc(C(=O)OCCC)nc1 and report it.
Result: inactive

Request: Find the measured outcome of CCOC(=O)c1ccc(O)cc1 and report it.
Result: inactive

Request: Find the measured outcome of N[C@@H](Cc1cc(I)c(Oc2ccc(O)c(I)c2)c(I)c1)C(=O)O and report it.
Result: inactive

Request: Find the measured outcome of CC1(C)C(C=C(Cl)Cl)C1C(=O)OCc1cccc(Oc2ccccc2)c1 (stereo not drawn) and report it.
Result: inactive

Request: Find the measured outcome of CCOC(=O)COc1cc(-n2ncc(C(F)(F)F)c(C)c2=O)c(F)cc1Cl and report it.
Result: inactive

Request: Find the measured outcome of COc1nc(C)nc(NC(=O)NS(=O)(=O)c2ccccc2OCCCl)n1 and report it.
Result: inactive

Request: Find the measured outcome of COC(=O)c1cccc(C)c1S(=O)(=O)NC(=O)Nc1nc(OCC(F)(F)F)nc(N(C)C)n1 and report it.
Result: inactive

Request: Find the measured outcome of COC(=O)c1c(Cl)nn(C)c1S(=O)(=O)NC(=O)Nc1nc(OC)cc(OC)n1 and report it.
Result: inactive
